# System: RPMI-8226 leukemia
# protocol.notes: NCI tumour cell line growth inhibition, 48 h
Each item that follows carries a reported TGI.

For orientation, consider the following solved cases.
Please report the recorded TGI for "COc1cc(-c2cn(-c3ccc(Cl)cc3)c(=O)[nH]2)cc(OC)c1OC" . > 100 µM

Using the record for "CCc1ccc(CCC(=O)Nc2ncc(Cc3ccccc3)s2)o1" , report its TGI. > 100 µM

Consider the compound "CCOC(=O)/C=C/[C@H](O[Si](c1ccccc1)(c1ccccc1)c1ccccc1)C(C)(C)C" and give its measured TGI. > 29 µM

Fill in: TGI of "CC(=O)/C=C/c1c[nH]c(=O)[nH]c1=O" is ___ 679 µM

Would you mind telling me what TGI value was observed for "COc1ncc(C#CC(=O)c2ccccc2OC)c(OC)n1" ? 9.65 µM

Others:
Which TGI reading was recorded for the compound "COc1ccc(/C=N/n2c(C)n[nH]c2=O)cc1" ? > 100 µM

====

# System: SF-295 CNS
# protocol.notes: NCI tumour cell line growth inhibition, 48 h
endpoint.label: TGI

These recorded examples may help you get a feel for the data.
Field request: TGI | item: "FC(F)(F)C1(C(F)(F)F)OC(Cl)(Cl)C(Cl)(Cl)O1" > 10 µM

Field request: TGI | item: "Cc1cc(S(N)(=O)=O)c(S/C(=N\Nc2ccc([N+](=O)[O-])cc2)c2ccc(Cl)cc2)cc1Cl" 5.46 µM

Suppose we examine the molecule "C=CCN=C1N=C(CC(=O)OCC)CS1" ; what TGI value has been reported? > 100 µM

Continuing:
Fill blank: measured TGI of the molecule CC1OC(OC2C(Oc3cc(O)c4c(=O)cc(-c5ccc(O)cc5)oc4c3)OC(CO)C(O)C2O)C(O)C(O)C1O (stereo not drawn) is ____. > 100 µM

# query: TGI of entry "Cc1ccc(C(=O)N/N=C/c2cccc(Oc3ccccc3)c2)cn1" > 36.5 µM

Name the reported TGI value associated with the molecule "O[C@]12CCCC[C@H]1CCC2" > 100 µM

Any idea what TGI was measured for "CCCN(CCC)C(=O)Cc1c2n(c3ccccc13)Cc1ccccc1-2" ? > 100 µM

Data request, read-out TGI, for "O=C(O)c1ccc([N+](=O)[O-])c2c(=O)c3ccccc3[nH]c12" > 100 µM

May I ask what TGI has been recorded for "Cn1c2ccccc2n2c3ccccc3c(=S)c(C#N)c12" ? > 100 µM

Field request: TGI | item: Cc1cc2nc3c(C(O)CO)nn(-c4ccccc4)c3nc2cc1C (stereo not drawn) 35.7 µM

What does the data say about its TGI? Entry: "CNS(=O)(=O)NN(C)S(=O)(=O)c1ccc(Br)cc1" > 100 µM

Which TGI value belongs to "Cc1cc(N/N=C/c2nc(-c3ccccc3)oc2C)c2cc(Cl)ccc2n1" ? 3.2 µM

So what's the measured TGI for this one? CC1=NN(C(=O)CC(=O)Nc2cccc(Cl)c2)C(=O)C1N=Nc1ccc(S(=O)(=O)c2ccc(N=NC3C(=O)N(C(=O)CC(=O)Nc4cccc(Cl)c4)N=C3C)cc2)cc1 (stereo not drawn) > 100 µM

# get_value(readout='TGI', item= "Cc1c(CN2CCC(Nc3ncnc4sc(CC(F)(F)F)cc34)CC2)ccc2c1cc(C#N)n2Cc1cn[nH]c1" ) 14.9 µM

// query TGI value for entry COc1ccc(S(=O)Cc2cc(OC)ccc2OC)cc1 (stereo not drawn) > 100 µM

====

# Tested on: NCI-H522 lung
# protocol.notes: NCI tumour cell line growth inhibition, 48 h; in the data active means GI50 below about 0.43 µM; inactive means the rest
Allowed answers: t = active, f = inactive

Use these answered entries as a reference point.
I'd appreciate the recorded outcome for "Cn1c2ccccc2c2nnc(N/N=C/c3ccccn3)nc21" from this test. f

Give the logged outcome of this assay for the following compound: "CCS(=O)(=O)c1ccc(OC)c(Nc2nccc(N(C)c3ccc4c(C)[nH]nc4c3)n2)c1" f

Check the results log: what was the call for "Cc1c(Cl)cccc1NC(=O)c1sc2nc3c(cc2c1N)CCCCCC3" ? t

Recorded test outcome, item "Cc1nn2c(/C=C3/C(=O)Nc4ccccc43)c(-c3ccc(Cl)cc3)nc2s1" f

Others:
What was the test verdict on N#CSCC1CC(O)(c2ccccc2)C(c2ccccc2)C(c2ccc(F)cc2)O1 (configuration not stated) ? f

Kindly provide the recorded test outcome for the following compound: "CCc1nc2ccc(Cc3ccc(C(=O)NO)cc3)cc2c(=O)n1CCc1ccccc1" t

Identify the outcome logged in this assay for the compound shown: "Cc1nc(NC(=S)Nc2ccc(F)cc2)sc1C(=O)NNC(=S)Nc1ccc(F)cc1" f

====

# System: PC-3 prostate
# protocol.notes: NCI tumour cell line growth inhibition, 48 h
Some compounds, each annotated with its measured GI50.

Examples with their reported GI50 follow.
So what's the measured GI50 for this one? "Cn1c2ccccc2c2nnc(N/N=C/c3ccccn3)nc21" 1.44 µM

Please give the measured GI50 for this compound: "O=C(Nc1ccc(Nc2ccncc2)cc1)c1ccc(Nc2ccnc3ccc([N+](=O)[O-])cc23)cc1" > 100 µM

***
# input compound: "O=c1[nH]nc2c3c(cccc13)NC(CN1Cc3ccccc3C1)=N2" ; wanted: its GI50 7.23 µM

Please look up its GI50: "CC1(C)N=C(N)N=C(N)N1c1cccc(CCCCc2ccc(S(=O)(=O)F)cc2Cl)c1" 0.581 µM

====

# Test system: SNB-75 CNS
# protocol.notes: NCI tumour cell line growth inhibition, 48 h; in the data active = GI50 below about 0.43 µM; inactive = the rest
Please reply with one of these outcomes: active, inactive

Completed entries (count: 3):
What classification did "Cc1ccc(NS(=O)(=O)c2cc(C)ccc2C)cc1" end up with in this test? inactive

Could you please tell me the result logged for "O=C(CNC(=O)c1cccc2ccccc12)Nc1ccccc1Oc1ccccc1" in this assay? active

Answer briefly: the call reported for "O=c1[nH]nc2c3c(cccc13)NC(CN1Cc3ccccc3C1)=N2" in this assay. inactive

Next:
Would you mind telling me which call this test gave "Cc1cc(-c2nc3ccc(O)cc3s2)ccc1N" ? inactive

Each molecule tested received a call. Report the one for "C#CC[C@H](c1nc2cc(Cl)ccc2c(=O)n1Nc1ccccc1)N(CCCN)C(=O)c1cccc(Cl)c1F" . active

What was the test verdict on "CN(C)CC#Cc1cccc(C(=O)c2cnn(-c3ccc(F)cc3)c2N)c1" ? inactive

Please share the test call associated with "Cn1c2ccccc2c2nnc(N/N=C/c3ccccn3)nc21" . inactive

====

# Tested on: MCF7 breast
# protocol.notes: NCI tumour cell line growth inhibition, 48 h
endpoint.label: GI50

Consider the following illustrative entries.
Quick one: GI50 for "COc1cc(-c2cn(-c3ccc(Cl)cc3)c(=O)[nH]2)cc(OC)c1OC" ? > 100 µM

Which GI50 value is on record for "O=C1C(Cl)=C(N2CCOCC2)C(=O)c2ccccc21" ? 3.49 µM

What value of measured GI50 is listed for "Cc1ccc(NS(=O)(=O)c2cc(C)ccc2C)cc1" ? 3.59 µM

Consider the compound shown here: "COc1cc(-c2cc(-c3nc4ccccc4[nH]3)[nH]n2)cc(OC)c1OC" What is its recorded GI50? 2.79 µM

Others:
Endpoint output: GI50 of CCN(CC)CCCC(C)Nc1cnc(C(=O)Nc2cc(F)cc3cccnc23)cn1 (configuration not stated) . Value? 2.1 µM

Look at this compound and give its reported GI50. "Cc1cc(N/N=C/c2nc(-c3ccccc3)oc2C)c2cc(Cl)ccc2n1" 1.64 µM

I have this compound here, "Cc1nc(Nc2ccc(F)c(Cl)c2)sc1C(=O)O" , and I need its recorded GI50. 1.53 µM

====

# Test system: OVCAR-8 ovarian
# protocol.notes: NCI tumour cell line growth inhibition, 48 h
Recorded measurements of TGI, one per entry

Previously resolved entries follow.
TGI lookup needed for "COc1ccc2nc(NC(=O)C(=O)CC(=O)c3ccc(Cl)cc3)sc2c1" , thanks. > 100 µM

Entry under review: "CNC=O" . Reported TGI? > 10000 µM

Given the compound "Cc1nn2c(/C=C3/C(=O)Nc4ccccc43)c(-c3ccc(Cl)cc3)nc2s1" , what is its reported TGI? > 50 µM

Entry under review: "COc1cc(/C=C2\CCc3cc(OC)c(OC)cc3C2=O)cc(OC)c1" . Reported TGI? > 52 µM

Need TGI of CCOP(=O)(OCC)C(Cc1ccccc1)N=C(c1ccccc1)c1ccccc1 (stereo unspecified) , thanks. 33.8 µM

Consider the record given below.
# get_value(readout='TGI', item= NC1CCC[C@@H](O)[C@H]1O (stereo partly specified) ) > 100 µM

====

# Test system: UO-31 renal
# protocol.notes: NCI tumour cell line growth inhibition, 48 h; in the data active = GI50 below about 0.43 µM; inactive = the rest
Bench note: report the call from yes (1) for active, no (0) for inactive

Please review the entries below; each comes with its answer.
Can you look up the reported call for "CN1CCN(Cc2ccc(NC(=O)c3[nH]ncc3Nc3ncnc4c3CCC4)cc2)CC1" for me? no (0)

Status in this test for "C#CC[C@H](c1nc2cc(Cl)ccc2c(=O)n1Nc1ccccc1)N(CCCN)C(=O)c1cccc(Cl)c1F" ? no (0)

Per the assay record, what outcome was assigned to "c1cncc(CNc2ccccc2-c2nnc(Nc3ccc4c(c3)OCCO4)o2)c1" ? no (0)

Further cases:
Called result for "C[C@@H]1CCN(C(=O)CC#N)C[C@@H]1N(C)c1ncnc2[nH]ccc12" no (0)

Please share the test call associated with "CCCCC(=O)[O-].N.N.N.N.N.[Co+3].[O-][Cl+3]([O-])([O-])[O-]" . no (0)

Field: outcome | Entry: "COc1cc(-c2cn(-c3ccc(Cl)cc3)c(=O)[nH]2)cc(OC)c1OC" no (0)

Dear colleague, could you share the recorded outcome for "Cn1c2ccccc2c2nnc(N/N=C/c3ccccn3)nc21" when you have a moment? yes (1)
